Every entry's value here was drawn from patent US20160090364A1.

# system.name: ROCK1 (Homo sapiens)
# Sequence (Q13464 whole entry, species assumed): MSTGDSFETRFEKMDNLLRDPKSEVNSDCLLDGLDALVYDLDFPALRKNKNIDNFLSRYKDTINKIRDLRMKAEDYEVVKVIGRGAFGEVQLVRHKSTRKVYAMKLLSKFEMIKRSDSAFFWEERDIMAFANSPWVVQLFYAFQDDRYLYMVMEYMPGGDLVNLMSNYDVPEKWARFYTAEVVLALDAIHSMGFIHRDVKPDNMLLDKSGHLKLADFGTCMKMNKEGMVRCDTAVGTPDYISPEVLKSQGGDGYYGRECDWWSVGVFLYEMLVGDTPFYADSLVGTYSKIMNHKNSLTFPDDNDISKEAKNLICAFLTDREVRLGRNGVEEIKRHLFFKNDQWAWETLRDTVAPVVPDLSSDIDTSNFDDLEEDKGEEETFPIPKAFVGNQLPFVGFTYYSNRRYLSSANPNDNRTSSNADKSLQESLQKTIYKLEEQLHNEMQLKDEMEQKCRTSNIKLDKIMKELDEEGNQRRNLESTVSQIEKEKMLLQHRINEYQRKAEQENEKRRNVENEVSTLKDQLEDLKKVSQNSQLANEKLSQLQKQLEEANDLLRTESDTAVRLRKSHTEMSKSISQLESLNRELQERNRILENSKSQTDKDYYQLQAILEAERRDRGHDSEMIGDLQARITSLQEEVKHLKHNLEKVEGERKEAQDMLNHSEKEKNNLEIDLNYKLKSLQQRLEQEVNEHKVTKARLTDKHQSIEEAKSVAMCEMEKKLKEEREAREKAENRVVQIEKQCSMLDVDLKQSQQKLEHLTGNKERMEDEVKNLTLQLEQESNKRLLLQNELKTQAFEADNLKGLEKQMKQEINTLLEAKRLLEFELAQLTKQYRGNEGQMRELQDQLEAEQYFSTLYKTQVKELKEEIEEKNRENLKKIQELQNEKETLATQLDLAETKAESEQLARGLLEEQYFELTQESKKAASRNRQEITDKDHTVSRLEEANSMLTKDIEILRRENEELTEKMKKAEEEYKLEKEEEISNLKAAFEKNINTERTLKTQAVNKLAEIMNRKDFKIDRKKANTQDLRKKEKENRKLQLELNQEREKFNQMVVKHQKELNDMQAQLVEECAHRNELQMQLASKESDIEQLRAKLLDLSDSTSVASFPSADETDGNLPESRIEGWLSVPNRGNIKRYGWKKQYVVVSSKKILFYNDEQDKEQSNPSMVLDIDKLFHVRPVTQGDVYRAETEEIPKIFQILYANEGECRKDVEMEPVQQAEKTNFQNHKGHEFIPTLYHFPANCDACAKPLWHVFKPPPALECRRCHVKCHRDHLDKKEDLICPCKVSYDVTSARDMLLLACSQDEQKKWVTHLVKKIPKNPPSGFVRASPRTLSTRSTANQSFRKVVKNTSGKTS
reported.endpoint: IC50

Prompt: Item under review: O=C(Oc1ccc(-c2n[nH]c(=O)c3ccccc23)cc1)N1CCC(c2ccccc2)C1 (stereo not shown) [Example 69] . Reported IC50?
Response: ≥ 50 µM
